Reference source: patent US6552080B1

Test system: Phytophthora infestans
Assay type: in vivo
applied conditions: Tomato Late Blight; concentration 2 ppm
Class condition met: TLB (Fungicidal Activities, C.V.) at least 40%. Class condition not met: TLB (Fungicidal Activities, C.V.) below 40%.

Example results:
CCCCc1ccc(C=C(F)Oc2cccc(C(C)=NOCc3ccccc3C(=NOC)C(=O)OC)c2)cc1	condition not met
CO/N=C(/C(=O)OC)c1ccccc1CON=C(C)c1cccc(OC(F)=Cc2ccccc2)c1	condition met

Query: Decide: is the reported value of TLB (Fungicidal Activities, C.V.) for `COC=C(C(=O)OC)c1ccccc1CON=C(C)c1cccc(OC(F)=Cc2cccc(C)c2)c1` equal to or greater than 40%?
Response: condition not met

Query: Decide: is the reported value of TLB (Fungicidal Activities, C.V.) for `CCc1ccc(C=C(F)Oc2cccc(C(C)=NOCc3ccccc3C(=NOC)C(=O)OC)c2)cc1` equal to or greater than 40%?
Response: condition not met
